Tested on: HT-1080
Assay Summary: WST-1 proliferation / cytotoxic test
Type: cell-based
Run Parameters: Homo sapiens, Fibrosarcoma, wst-1 cytotoxic test, 72 h
Measured Metric: pIC50
Answers are plain numbers, as −log10 of the molar value.

Ask | Form field: pIC50 recorded for "CCOc1ccccc1NC(=O)c1ccc(C)c(S(=O)(=O)Nc2ccc(C)cc2)c1" with HT-1080 (enter value)
Reply | 6.52
